Tested on: SPF male rats, OFA strain
Test: Anti-inflammatory activity: paw swelling after subcutaneous plantar injection of carraghenine, oral administration
Format: in vivo
Conditions: Rattus norvegicus, po, 16 mg/kg oral, carraghenine, read-out: percentage reduction in the inflammation
observed-property: inhibition in vivo at 16 mg/kg (%)
Give your result in % as a bare value.

Data point: CCC1Cc2ccc(C(C)CO)cc2C1 (stereo not drawn) [Example 34, 2-Methyl-β-[2-ethyl-indanyl-(5)]-ethanol] ; inhibition in vivo at 16 mg/kg = 46

Data point: CC(C(=O)OCCN1CCOCC1)c1ccc2c(c1)CC(C(C)C)C2 (centres unmarked) [Example 9] ; inhibition in vivo at 16 mg/kg = 47

Data point: CCC1Cc2ccc(C(C)C(=O)OCCN3CCOCC3)cc2C1 (centres unmarked) [Example 26] ; inhibition in vivo at 16 mg/kg = 38

Data point: CC1Cc2ccc(C(C)C(=O)O)cc2C1 (centres unmarked) [Example 15] ; inhibition in vivo at 16 mg/kg = 11

Data point: CC(C(=O)O)c1ccc2c(c1)CC(C(C)C)C2 (centres unmarked) [Example 7] ; inhibition in vivo at 16 mg/kg = 43

Data point: CCN(CC)CCOC(=O)C(C)c1ccc2c(c1)CC(C(C)C)C2 (centres unmarked) [Example 28] ; inhibition in vivo at 16 mg/kg = 31

Data point: CC(C(=O)O)c1ccc2c(c1)CC(C1CCCCC1)C2 (centres unmarked) [Example 14] ; inhibition in vivo at 16 mg/kg = 11

Data point: CC(C(=O)OCCN1CCOCC1)c1ccc2c(c1)CC(C)(C)C2 (centres unmarked) [Example 24] ; inhibition in vivo at 16 mg/kg = 7

Data point: CC(C(=O)OCCN(C)C)c1ccc2c(c1)CC(C(C)C)C2 (centres unmarked) [Example 27] ; inhibition in vivo at 16 mg/kg = 54

Data point: CC(CO)c1ccc2c(c1)CC(C(C)C)C2 (centres unmarked) [Example 33] ; inhibition in vivo at 16 mg/kg = 13

Data point: CC1(C)Cc2ccc(CC(=O)O)cc2C1 [Example 13, [2,2-Dimethyl-indanyl-(5)]-acetic acid] ; inhibition in vivo at 16 mg/kg = 23
